Values were extracted from patent US7094909B2.

Assign Ki to each entry below.
- targetSystem: HIV-1 protease (Q7S mutant form) (Human immunodeficiency virus type 1 group M subtype B, UniProt P04585, Q495S)
- Construct: made in house
- protocolNotes: HIV-1 Protease RET assay
- Type: biochemical
- studyConditions: Ave. Ki (nM), RET assay, Q7S enzyme, Morrison tight binding fit
One number for each entry, in nM.

Below are worked cases with known answers.
smi=Cc1c(O)cccc1C(=O)N[C@@H](Cc1ccccc1)[C@H](O)C(=O)N1CO[C@@H](C)[C@H]1C(=O)N[C@@H]1C=CCCC1 testresult=8.4
smi=Cc1ccccc1CNC(=O)N[C@@H](Cc1ccccc1)[C@H](O)C(=O)N1CSC(C)(C)[C@H]1C(=O)NCc1ccccc1C testresult=4.2

Documented Ki of Cc1c(O)cccc1C(=O)N[C@@H](Cc1ccccc1)[C@H](O)C(=O)N1CSC(C)(C)[C@H]1C(=O)NC1CCCCCC1 : 0.44
